test: ATG_EGR_CIS: Attagene CIS-FACTORIAL HepG2 Assay for human Early Growth Response 1 (EGR1) (AID 2282938); settings: HepG2 Attagene CIS-FACTORIAL EGR reporter mRNA; actives raise or lower the signal
Activity calls are given as the source filed them. How the source made its calls: active means hit-call score of the fitted dose curve at least 0.9, where 1 is the maximum; inactive means score below 0.9.
Labels: label 1 for active, label 0 for inactive

> print(dat)
                                    molecule  classification
 1                         Cc1cccc(C(=O)O)c1         label 0
 2                                     COC=O         label 0
 3  CCC(C)OC(=O)c1ccc(O)cc1 (stereo unspecified)         label 0
 4       CCc1c(C(=O)O)c(=O)cnn1-c1ccc(Cl)cc1         label 0
 5                    ON(Cc1ccccc1)Cc1ccccc1         label 0
 6                O=C(O)c1cc2ccccc2nc1C(=O)O         label 0
 7             Cc1ccc2c(c1)C(=O)c1ccccc1C2=O         label 0
 8                        CC(=O)Oc1ccc(C)cc1         label 0
 9         CC(C)(C)c1ccc(OC(=O)c2ccccc2O)cc1         label 0
10   C[Si](C)O[Si](C)(C)O[Si](C)(C)O[Si](C)C         label 0
11  O=C(Nc1ccccc1SSc1ccccc1NC(=O)c1ccccc1)c1ccccc1         label 0
12                    CO[Si](OC)(OC)c1ccccc1         label 0
13                     Cc1cc(O)c(Cl)c(C)c1Cl         label 0
14  O=C1OC(=O)c2cc(Oc3ccc4c(c3)C(=O)OC4=O)ccc21         label 0
15                                  C1=CCCC1         label 0
16     O=C(/C=C/C=C/c1ccc2c(c1)OCO2)N1CCCCC1         label 1
17                  COC(=O)c1sccc1S(N)(=O)=O         label 0
18           CCCNC(=O)NS(=O)(=O)c1ccc(Cl)cc1         label 0
19                       Nc1cccc(C(F)(F)F)c1         label 0
20                   C=CCOc1c(Br)cc(Br)cc1Br         label 0
21               CCCCCCCCCCCCCCCC[n+]1ccccc1         label 0
22     CC(CC=O)c1ccccc1 (stereo unspecified)         label 0
23   CC(C)=CC1CC(C)CCO1 (stereo unspecified)         label 0
24                        COC(=O)/C=C\C(=O)O         label 0
25  COC(=O)C1=C(C)NC(C)=C(C(=O)OCC(C)C)C1c1ccccc1[N+](=O)[O-] (stereo unspecified)         label 0
26                       O=c1c2ccccc2nnn1CCl         label 0
27                                     OCCCS         label 0
28                         OCCN(CCO)c1ccccc1         label 0
29              O=C(c1ccccc1)c1ccc(O)c(O)c1O         label 0
30  Cc1cnc(NC(=O)C2=C(O)c3ccccc3S(=O)(=O)N2C)s1         label 0
31           COc1cc(NC(=O)CC(C)=O)c(OC)cc1Cl         label 0
32  CN1C(=O)N(C)C(O)C1O (stereo unspecified)         label 0
33                                 CCC(CO)CO         label 0
34               Oc1ccc(Cl)cc1Cc1cc(Cl)ccc1O         label 1
35                     C=CCCCCCCCCC(=O)OCCCC         label 0
36                      CC(C)=CCC[C@H](C)CCO         label 0
37                        CC(C)c1ccc(C=O)cc1         label 0
38                      COc1ccc(NC(C)=O)cc1N         label 0
39                                    CC=CCO         label 0
40  c1cc(N(CC2CO2)CC2CO2)ccc1OCC1CO1 (stereo unspecified)         label 1
41                            C=CC=CC=CCCCCC         label 0
42                        Cc1cc(C)c(C)c(O)c1         label 0
43          Cc1oncc1C(=O)Nc1ccc(C(F)(F)F)cc1         label 0
44                   CC(=O)Oc1ccc(C(C)=O)cc1         label 0
45                     c1ccc(CCCc2ccncc2)cc1         label 0
46                        CC(C)c1ccc(C#N)cc1         label 0
47               C/C=C\C/C=C/CCCCCCCCOC(C)=O         label 1
48   C=CC(=O)OCC(Br)CBr (stereo unspecified)         label 1
49                    CC1=CC[C@H](C(C)C)C=C1         label 0
50  CCCCCCC1(C)CCC(=O)O1 (stereo unspecified)         label 0
51                        [Cl][In]([Cl])[Cl]         label 0
52    CCCCNc1ccc(NCCCC)c2c1C(=O)c1ccccc1C2=O         label 0
53                    O=c1c2ccccc2oc2ccccc12         label 0
54                                 CNC(=S)NN         label 0
55                     O=C1CCCCCCCCCCCCCCCO1         label 0
56                        COc1ccc2nc(N)sc2c1         label 0
